- TESTED TARGET: DRB1*0802 (Homo sapiens, UniProt P01903+P01911, A100R/A103L/A169T/F76Y/H45Y/I96F/K41T/L162R/M171V/P40S/Q125H/Q178H/Q39Y/Q99D/R218S/R42G/S66Y/V115G/W38E)
- METHOD SUMMARY: biochemical
MEASUREMENT TYPE: IC50 (µM)
API: value field is a number in µM; no unit string.

# STRUCTURE SMILES, MEASURE UNIT, IC50
rows = [
    ("CC(C)C[C@H](NC(=O)[C@H](C)NC(=O)[C@H](CCC(=O)O)NC(=O)[C@H](Cc1ccccc1)NC(=O)[C@H](CCC(=O)O)NC(=O)[C@H](CC(C)C)NC(=O)[C@H](Cc1ccc(O)cc1)NC(=O)[C@H](CCCNC(=N)N)NC(=O)[C@H](C)NC(=O)CNC(=O)[C@H](CC(C)C)NC(=O)[C@@H](N)Cc1c[nH]c2ccccc12)C(=O)NCC(=O)N[C@@H](Cc1ccccc1)C(=O)N[C@@H](CC(C)C)C(=O)N[C@@H](CC(N)=O)C(=O)N[C@@H](CCC(=O)O)C(=O)O", "µM", 2.28),
]

Kindly review the next compound as well.
Query :: Look up IC50: CC[C@H](C)[C@H](NC(=O)[C@H](C)NC(=O)[C@H](C)NC(=O)[C@H](C)NC(=O)[C@@H](N)CCC(=O)O)C(=O)N[C@@H](Cc1ccccc1)C(=O)N[C@@H](CCSC)C(=O)N[C@H](C(=O)N[C@@H](C)C(=O)N[C@H](C(=O)N1CCC[C@H]1C(=O)N1CCC[C@H]1C(=O)NCC(=O)N[C@H](C(=O)N[C@@H](C)C(=O)O)[C@@H](C)O)[C@@H](C)O)[C@@H](C)O
Result :: 0.031
